Hey, just so you know, these numbers are from paper PMC13266984.

target: Human ALDH3A1 (Homo sapiens, UniProt P30838); assay: ALDH3A1 biochemical assay (benzaldehyde/NADP+, diaphorase-resazurin readout, 1,536-well); conditions: Table S5, biochemical
Sequence (P30838 whole entry): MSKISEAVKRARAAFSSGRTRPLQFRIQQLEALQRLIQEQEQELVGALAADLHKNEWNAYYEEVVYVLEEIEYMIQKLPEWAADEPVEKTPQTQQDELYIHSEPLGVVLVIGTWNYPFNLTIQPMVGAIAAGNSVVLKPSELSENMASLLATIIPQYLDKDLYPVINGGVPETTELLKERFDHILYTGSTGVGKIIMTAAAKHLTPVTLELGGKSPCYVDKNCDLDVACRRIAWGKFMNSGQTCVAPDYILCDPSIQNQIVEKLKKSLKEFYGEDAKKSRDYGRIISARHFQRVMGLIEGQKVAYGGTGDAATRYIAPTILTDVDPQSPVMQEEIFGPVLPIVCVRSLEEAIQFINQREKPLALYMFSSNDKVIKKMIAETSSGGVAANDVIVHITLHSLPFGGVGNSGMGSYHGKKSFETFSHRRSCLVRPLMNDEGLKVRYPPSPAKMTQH
experimental_readout: Efficacy
Number only, please.

Data request, read-out Efficacy, for O=C(NCc1ccc(C#CC2CC2)cc1)c1csc(N2CCN(c3cccc(C(F)(F)F)c3)CC2)n1 [NCGC01407809-01]
-101.87

Now try N#Cc1cccc(CNC(=O)c2csc(N3CCN(c4cccc(C(F)(F)F)c4)CC3)n2)c1 [NCGC01397393-01] .
-100.26

Entry to check: O=C(NCc1ccc2c(c1)CCC2)c1csc(N2CCN(c3cccc(C(F)(F)F)c3)CC2)n1 [NCGC01407784-01]
-99.55

What would you report for CC(C)(C)c1cc(CNC(=O)c2csc(N3CCN(c4cccc(C(F)(F)F)c4)CC3)n2)cc(C(C)(C)C)c1 [NCGC01407780-01] ?
-7.18

// repeat for O=C(NCc1ccc(F)c(F)c1)c1csc(N2CCN(c3cccc(C(F)(F)F)c3)CC2)n1 [NCGC01407951-01] and report
-100.75

Moving on to COc1cc(CNC(=O)c2csc(N3CCN(c4cccc(C(F)(F)F)c4)CC3)n2)ccc1F [NCGC01396486-01]
-100.89

Again, but for O=C(NCc1ccc(C(F)(F)F)c(Cl)c1)c1csc(N2CCN(c3cccc(C(F)(F)F)c3)CC2)n1 [NCGC01407914-01]
-95.28

// next record O=C(NCc1ccc(S(F)(F)(F)(F)F)cc1)c1csc(N2CCN(c3cccc(C(F)(F)F)c3)CC2)n1 [NCGC01407933-01]
-87.34
